# System: primary mouse cortical neurons
# Construct: primary cortical neurons, DIV 10
# measurement description: cells
# Parameters: Protection from NMDA-induced (30 uM, 10 min) neuronal death; Hoechst nuclear morphology by automated microscopy
# test parameters: Cortical neurone, 20 h, read-out: % inhibition, inhibition of NMDA-induced cell death (protection score), 30 min pre-treatment
Counter-ions that a name gives are not always drawn.
parameter measured: inhibition at 10 µM

Past entries and their recorded results:
1. CN(C)c1ccc(C(=C2C=CC(=[N+](C)C)C=C2)c2ccc(N(C)C)cc2)cc1 [Crystal violet]; -3.37%
2. Cc1cccc(Nc2ccncc2S(=O)(=O)NC(=O)NC(C)C)c1 [Torsemide (Demadex)]; 22%
3. CCCCCCCCCCC[C@@H](C[C@@H]1OC(=O)[C@H]1CCCCCC)OC(=O)[C@H](CC(C)C)NC=O [Orlistat (Alli, Xenical)]; -9.87%
4. c1ccc2c(CC3=NCCN3)cccc2c1 [Naphazoline hydrochloride (Naphcon)]; -0.842%
5. CN(C)CC/C=C1/c2ccccc2Sc2ccc(Cl)cc21 [Chlorprothixene]; -2.97%
6. CN1[C@@H]2CC(OC(=O)[C@H](CO)c3ccccc3)C[C@H]1[C@@H]1O[C@@H]12 (some centres unmarked) [Scopolamine hydrobromide]; -0.0258%
7. CS(=O)(=O)OCCCCOS(C)(=O)=O [Busulfan (Myleran, Busulfex)]; 15.7%

Okay, now this compound:
input: Data request, read-out inhibition at 10 µM, for O=c1cc(-c2ccccc2)oc2cc(O)c(O)c(O)c12 [Baicalein]
output: -2.71%
